# System: SYK
# condition notes: concentration: 1 μM, replicates: in singlicate; n = 1;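 note: KINOMEscan kinase panel screen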
Criterion: %Inh strictly under 30%. Met: yes. Not met: no.

1) Nc1ncc(-c2cccnc2)c2scc(-c3ccc4c(c3)CCN4C(=O)Cc3ccccc3)c12    no
2) O=C(Nc1n[nH]c2cc(-c3ccoc3)ccc12)C1CC1    yes
3) Cc1ccc(C(=O)N2CC[C@@H](O)C2)cc1-n1c(C)cc(OCc2ccc(F)cc2F)c(Br)c1=O    yes
4) COc1ccc(-c2coc3ccc(-c4nnc(SCc5ccc(OC)c(C(F)(F)F)c5)o4)cc23)cc1    yes
5) O=C(NC1CCN(c2ccnc(Nc3ccc(F)cc3)n2)C1)c1cc2ccccc2s1 (stereo not drawn)    no
6) Cn1cc(-c2[nH]c3cc(NC(=O)[C@H](N)C4CCCCC4)cc4c3c2C=NNC4=O)cn1    no
7) Cc1ccc(C(=O)Nc2ccc(Nc3ccnc4cc(-c5nccs5)ccc34)cc2O)cc1.Cl    yes
8) Cl.Cl.NCC(C(=O)Nc1cc(Br)c(-c2ccnc3[nH]ccc23)s1)c1ccccc1 (stereo not drawn)    yes
9) CCc1ccc(-c2ccc3c(c2)-c2c(cnn2C)S(=O)(=O)N3C)cc1    yes
10) Nc1ncnc2c1nc(-c1ccccc1)n2-c1ccccc1    yes
11) COc1cc(Nc2nccc(-c3c(-c4cccc(NC(=O)c5c(F)cccc5F)c4)nn4ccccc34)n2)cc(OC)c1OC    yes
12) O=C(Nc1ccccc1F)NC1CCN(c2ccnc(Nc3ccc(F)cc3)n2)CC1    yes
13) Cc1ccc(F)c(C(=O)Nc2cccc(-c3nn4ccccc4c3-c3ccnc(Nc4cccc(F)c4)n3)c2)c1F    no
14) COc1cccc(C2=C(Nc3ccc(Cl)c(C(=O)O)c3)C(=O)NC2=O)c1    no
15) C[C@@H](Oc1cc(-n2cnc3cc(-c4ccnc(NCCS(C)(=O)=O)c4)ccc32)sc1C(N)=O)c1ccccc1Cl    no
16) COc1ccc(Nc2nccc(NCCNC(=O)c3cc4ccccc4s3)n2)cc1    yes
17) CN(c1ccc(NC(=O)Nc2cc(C(F)(F)F)ccc2F)cc1)c1ccnc(Nc2ccc(S(N)(=O)=O)cc2)n1    no
18) Oc1cc(Nc2ccnc3cc(I)ccc23)ccc1F    yes

###

compounds and their reported %Inh
# System: CDKL2
# condition notes: concentration: 1 μM, replicates: in singlicate; n = 1
assay readout: %Inh (%)

1) Cc1ccc(S(=O)(=O)Nc2ccc(Nc3nccc(Nc4cccc5[nH]ncc45)n3)cc2)cc1 [GSK581271]    22
2) O=C(NC1CCN(c2ccnc(Nc3ccc(F)cc3)n2)C1)c1cc2ccccc2s1 (stereo not shown) [GSK1379716]    40
3) O=C(O)C(F)(F)F.O=C(O)C(F)(F)F.O=c1[nH]ccc2nc(N[C@@H]3CCCNC3)nc(Nc3ccc(S(=O)(=O)N4CCOCC4)cc3)c12 [GSK2177277]    45
4) C[C@@H](Oc1cc(-n2cnc3cc(-c4ccnc(NCCS(C)(=O)=O)c4)ccc32)sc1C(N)=O)c1ccccc1Cl [GSK907232]    12
5) CN(C)S(=O)(=O)c1cc(-c2ccc3nccc(-c4cccc(S(N)(=O)=O)c4)c3c2)cnc1N [GSK1669921]    25
6) Cl.c1ccc(-c2ccc3c(Nc4ccc5[nH]ncc5c4)ccnc3c2)nc1 [GW440137]    40
7) COC(=O)Nc1nc2cc(Oc3ccc(NC(=O)Nc4cc(C(F)(F)F)ccc4F)cn3)ccc2[nH]1.Cl.Cl [GW681170]    98.3
